Experiment: Human HepG2 cell viability assay in 384 well format
Type: toxicity, cell-based
Set-up: dose 125 nL, time 70.5 hour; concentration not given beside the values
Conditions: HepG2 cells, read-out: Inhibition
Provide the reported cytotoxicity at 70.5 h of each item.
Supply the numeric figure in %, leaving out any unit text.

Input: I would be grateful if you could share the reported cytotoxicity at 70.5 h for Fc1ccccc1CN1CCCC2(CCN(c3ncccn3)CC2)C1 .
Output: -3.46

Input: I would be grateful if you could share the reported cytotoxicity at 70.5 h for Cc1csc(CNC(=O)NCC(O)c2ccc(F)cc2)n1 (stereo unspecified) .
Output: -12.5

Input: I would be grateful if you could share the reported cytotoxicity at 70.5 h for CN(C)[C@@H]1COC[C@@H]2CN(Cc3ccc4c(c3)OCO4)C[C@@H]21 .
Output: -3.34

Input: I would be grateful if you could share the reported cytotoxicity at 70.5 h for Cn1nc(CNC(=O)c2nc3ccccc3s2)c2c1CCOC2 .
Output: 8.85

Input: I would be grateful if you could share the reported cytotoxicity at 70.5 h for CCN(Cc1noc(C)n1)C(=O)C(c1ccccc1C)N(C)C (stereo unspecified) .
Output: -6.06

Input: I would be grateful if you could share the reported cytotoxicity at 70.5 h for CN(C)c1ccc(C(=O)NCC2(c3ccccc3)CCOCC2)cc1 .
Output: -10.7

====

Assay: Human HepG2 cell viability assay in 384 well format
Assay type: toxicity, cell-based
Design: dose 125 nL, time 70.5 hour; concentration not given beside the values
Conditions: HepG2 cells, read-out: Inhibition
Provide the reported cytotoxicity at 70.5 h of each item.
Supply the numeric figure in %, leaving out any unit text.

Input: I would be grateful if you could share the reported cytotoxicity at 70.5 h for Cc1ccc(CN(C(=O)NCC2CCCO2)C2CC2)o1 (stereo unspecified) .
Output: -9.69

Input: I would be grateful if you could share the reported cytotoxicity at 70.5 h for CN(Cc1cccc(C#N)c1)C(=O)C1CC(c2cccc(F)c2)=NO1 (stereo unspecified) .
Output: -6.75

Input: I would be grateful if you could share the reported cytotoxicity at 70.5 h for O=C(NC[C@H]1C[C@@H]2CCN1C[C@@H]2CN1CCCCC1)c1ccco1 .
Output: 0.157

Input: I would be grateful if you could share the reported cytotoxicity at 70.5 h for Cc1nn(C)c(Cl)c1C1CCCN1C(=O)c1cnccn1 (stereo unspecified) .
Output: -7.92

Input: I would be grateful if you could share the reported cytotoxicity at 70.5 h for CC(C)N(C)Cc1cncc2c1CCN(C(=O)c1cccc(C#N)c1)C2 .
Output: -4.95

Input: I would be grateful if you could share the reported cytotoxicity at 70.5 h for CC(=O)N1C[C@H]2CCCN(Cc3ccc(C)o3)[C@H]2C1 .
Output: -10.5

====

Provide the reported cytotoxicity at 70.5 h of each item.
Test: Human HepG2 cell viability assay in 384 well format
Assay type: toxicity, cell-based
Set-up: dose 125 nL, time 70.5 hour; concentration not given beside the values
Conditions: HepG2 cells, read-out: Inhibition
Supply the numeric figure in %, leaving out any unit text.

Input: I would be grateful if you could share the reported cytotoxicity at 70.5 h for CCc1ccc(CC)c(NCc2cnc(N3CCOCC3)nc2)c1 .
Output: -2.91

Input: I would be grateful if you could share the reported cytotoxicity at 70.5 h for CN1CCC2(CCN(C(=O)c3cccnc3)C2)C1 (configuration not stated) .
Output: 0.955

Input: I would be grateful if you could share the reported cytotoxicity at 70.5 h for CC(NC(=O)N1CCCCCC1)c1ccc(S(N)(=O)=O)cc1 (configuration not stated) .
Output: -7.46

Input: I would be grateful if you could share the reported cytotoxicity at 70.5 h for Cc1csc(C2CCCCN2C(=O)CCn2cncn2)n1 (configuration not stated) .
Output: 33.9

Input: I would be grateful if you could share the reported cytotoxicity at 70.5 h for O=C(Cc1ccc(CO)cc1)N1CCN(CC2CC2)[C@@H]2CS(=O)(=O)C[C@@H]21 .
Output: 2.89

Input: I would be grateful if you could share the reported cytotoxicity at 70.5 h for Cc1ccc(-c2nc(CNCCn3cccn3)cs2)o1 .
Output: -7.84

Input: I would be grateful if you could share the reported cytotoxicity at 70.5 h for NC(=O)CCC1CCCN(c2ccnc3cc(F)ccc23)C1 (configuration not stated) .
Output: -12.1

Input: I would be grateful if you could share the reported cytotoxicity at 70.5 h for CCC(=O)Nc1cc(Br)cn(C)c1=O .
Output: 23.5

Input: I would be grateful if you could share the reported cytotoxicity at 70.5 h for CC(C)N1CCN2C(=O)N(C3CCCCC3)C[C@H]2C1 .
Output: 0.287

Input: I would be grateful if you could share the reported cytotoxicity at 70.5 h for Cc1cc(S(=O)(=O)Nc2cccc(-n3cccc3)c2)sc1C(=O)O .
Output: -13

Input: I would be grateful if you could share the reported cytotoxicity at 70.5 h for CC1CCN(CCCNS(=O)(=O)Cc2ccccc2F)CC1 .
Output: 1.01

Input: I would be grateful if you could share the reported cytotoxicity at 70.5 h for N#Cc1ccc(N2CCCC3(CCN(c4cccnc4)CC3)C2)cc1 .
Output: 51.2

====

Assay: Human HepG2 cell viability assay in 384 well format
Assay type: toxicity, cell-based
Design: dose 125 nL, time 70.5 hour; concentration not given beside the values
Details: HepG2 cells, read-out: Inhibition
endpoint-name: cytotoxicity at 70.5 h (%)
Supply the numeric figure in %, leaving out any unit text.

Input: I would be grateful if you could share the reported cytotoxicity at 70.5 h for CCc1ccc(CN2CCC3(CC2)CNC(=O)CO3)o1 .
Output: -3.42

Input: I would be grateful if you could share the reported cytotoxicity at 70.5 h for CCS(=O)(=O)N1CCC2(C1)C(=O)N(C)CCN2Cc1ccncc1 (stereo unspecified) .
Output: -7.36

Input: I would be grateful if you could share the reported cytotoxicity at 70.5 h for CS(=O)(=O)N1CCC2(CC1)COC(COc1ccccn1)C2 (stereo unspecified) .
Output: -12.3

Input: I would be grateful if you could share the reported cytotoxicity at 70.5 h for CC(C)c1cc(C(=O)N(c2ccc(F)cn2)C2CCOCC2)nn1C .
Output: 3.21

Input: I would be grateful if you could share the reported cytotoxicity at 70.5 h for CCSc1cc(C(=O)NC(C)c2cccc(N3CCOC3=O)c2)ccn1 (stereo unspecified) .
Output: 16.4

Input: I would be grateful if you could share the reported cytotoxicity at 70.5 h for NC(=O)CC1CCN(C(=O)c2csc(-c3ccccc3F)n2)CC1 .
Output: -18.8

====

Test: Human HepG2 cell viability assay in 384 well format
Type: toxicity, cell-based
Design: dose 125 nL, time 70.5 hour; concentration not given beside the values
Conditions: HepG2 cells, read-out: Inhibition
endpoint-name: cytotoxicity at 70.5 h (%)
Supply the numeric figure in %, leaving out any unit text.

Input: I would be grateful if you could share the reported cytotoxicity at 70.5 h for COc1ncccc1CNCc1cnc(N2CCOCC2)nc1 .
Output: -9.23

Input: I would be grateful if you could share the reported cytotoxicity at 70.5 h for Cc1ccc2c(c1)C(N(C)C)CC21CCN(CCO)CC1 (centres undefined) .
Output: -0.704

Input: I would be grateful if you could share the reported cytotoxicity at 70.5 h for O=C1N[C@H]2OCCC[C@H]2[C@H](c2ccc(C(=O)O)cc2)N1 .
Output: 12.6

Input: I would be grateful if you could share the reported cytotoxicity at 70.5 h for Cc1nc(-c2ccccc2C)n(CC(=O)NC2CCCC2)n1 .
Output: 19

Input: I would be grateful if you could share the reported cytotoxicity at 70.5 h for O=C(Cc1ccccc1F)N1CCC[C@@H]1Cn1c(=O)oc2ccccc21 .
Output: 6.08

Input: I would be grateful if you could share the reported cytotoxicity at 70.5 h for O=C1NCc2ccc(NC(=O)C3CCCN3c3nccs3)cc21 (centres undefined) .
Output: -9.24

Input: I would be grateful if you could share the reported cytotoxicity at 70.5 h for O=C(c1ccc(C(F)(F)F)cc1)C1CCCN(C(=O)Cn2cnnn2)C1 (centres undefined) .
Output: -15.3

Input: I would be grateful if you could share the reported cytotoxicity at 70.5 h for Cn1cc(Br)cc(NC(=O)CC(C)(C)C)c1=O .
Output: -13.2

Input: I would be grateful if you could share the reported cytotoxicity at 70.5 h for CCC(C)N(Cc1ccc(C)cc1)Cc1c[nH]c(C)n1 (centres undefined) .
Output: -5.02

Input: I would be grateful if you could share the reported cytotoxicity at 70.5 h for CCc1nc(CSC2CCCN(c3cnn(C)c3)C2=O)cs1 (centres undefined) .
Output: 7.29

Input: I would be grateful if you could share the reported cytotoxicity at 70.5 h for Cc1noc(C)c1CN1C[C@@H]2COC[C@H](C(=O)N3CCOCC3)[C@@H]2C1 .
Output: -8.43

Input: I would be grateful if you could share the reported cytotoxicity at 70.5 h for COCCc1noc(CN2CCCC2Cn2cc(C)cn2)n1 (centres undefined) .
Output: 18.1

Input: I would be grateful if you could share the reported cytotoxicity at 70.5 h for COc1c(CNCc2ccccc2CO)c(C)nn1C .
Output: -5.09

Input: I would be grateful if you could share the reported cytotoxicity at 70.5 h for Cc1cn(CC(=O)NC2CCC3(CC2)OCCO3)c2ccccc12 .
Output: -6.58

Input: I would be grateful if you could share the reported cytotoxicity at 70.5 h for CC(C)(C)n1ncc(C(=O)NCCCC(N)=O)c1C(F)(F)F .
Output: -9.38

Input: I would be grateful if you could share the reported cytotoxicity at 70.5 h for C=C(C)CN1CCCC(NS(C)(=O)=O)C1 (centres undefined) .
Output: -5.08

Input: I would be grateful if you could share the reported cytotoxicity at 70.5 h for COCCN1CC2(CCN(Cc3ccco3)CC2)c2ccccc21 .
Output: 4.26

Input: I would be grateful if you could share the reported cytotoxicity at 70.5 h for O=C(c1ccoc1)N1CC[C@@H]2O[C@@H](COCC3CCOCC3)CC[C@@H]21 .
Output: 16

Input: I would be grateful if you could share the reported cytotoxicity at 70.5 h for O=S1(=O)N(c2ccccc2)C[C@@H](O)[C@]12CCNC2 .
Output: -3.92

Input: I would be grateful if you could share the reported cytotoxicity at 70.5 h for CCOc1nn(CC)cc1-c1nnc(SCc2ccccn2)n1C .
Output: -6.8

Input: I would be grateful if you could share the reported cytotoxicity at 70.5 h for COc1ccc(C(=O)C2CCCN(c3nccc(N)n3)C2)c(C)c1 (centres undefined) .
Output: -4.73

Input: I would be grateful if you could share the reported cytotoxicity at 70.5 h for CCOc1ncccc1NC(=O)NCC(O)c1ccccc1OC (centres undefined) .
Output: 11.2

Input: I would be grateful if you could share the reported cytotoxicity at 70.5 h for O=C(c1sccc1-n1cnnn1)N1CCC2(CCCCC2)CC1 .
Output: 11.8

Input: I would be grateful if you could share the reported cytotoxicity at 70.5 h for Cc1nn(CC(C)C)c(N(C)C)c1CNCc1cc2ccccc2[nH]1 .
Output: 5.6
